The reported measurements were obtained from patent US20260258084A1.

experiment: Solubility testing of peptides at different pH; type: physicochemical; details: 50 mM phosphate buffer pH 7.4; target concentration 1 mg/ml; 2 hours agitation; read-out: Solubility Buffer pH 7.4
Starred links: 1 amine or outer side, 2 acyl side, 3 side chain; linkers in the order of their positions; H or OH if unused. Positions of bridges follow the written chain, without caps; N, C: chain ends. Non-standard residues stand in square brackets, D forms with d. Residues, ends and D or L forms follow the SMILES beside them. *: point of attachment. X3 = CN(CCCCC(=O)N[C@@H](CS[*:2])C(=O)[*:1])[*:3]; X1 = O=C(CCCCN[*:3])N[C@@H](CS[*:2])C(=O)[*:1]; 2Nal = N[C@@H](Cc1ccc2ccccc2c1)C(=O)O; AEF = NCCOc1ccc(C[C@H](N)C(=O)O)cc1; αMeL = CC(C)C[C@](C)(N)C(=O)O; Me2NCH2CH2 = CN(C)CC*; Aib = CC(C)(N)C(=O)O
Listed here are compounds together with their documented solubility at 2 h.

For orientation, consider the following solved cases.
CC(=O)N[C@H]1CCCCNC(=O)[C@@H]2CSSC[C@H](NC(=O)[C@H](CCC(N)=O)NC(=O)[C@H](Cc3c[nH]c4ccccc34)NC1=O)C(=O)N[C@@H](Cc1ccc(OCCN(C)C)cc1)C(=O)N[C@@H](Cc1ccc3ccccc3c1)C(=O)NC(C)(C)C(=O)N[C@H](C(=O)N[C@@H](C)C(=O)NCC(N)=O)CCC(=O)NCCCCC(=O)N2 [compound 32] (Ac-KWQCY(Me2NCH2CH2)[2Nal][Aib]EAG-NH2; linker 1-4-8 via X1); ≥ 870 µg/mL
CC(=O)N[C@H]1CCCCNC(=O)[C@@H]2CSSC[C@H](NC(=O)[C@H](CCC(N)=O)NC(=O)[C@H](Cc3c[nH]c4ccccc34)NC1=O)C(=O)N[C@@H](Cc1ccc(OCCN)cc1)C(=O)N[C@@H](Cc1ccc3ccccc3c1)C(=O)N[C@@](C)(CC(C)C)C(=O)N[C@H](C(=O)N[C@@H](C)C(=O)N[C@H](CC(C)C)C(N)=O)CCC(=O)N(C)CCCCC(=O)N2 [compound 44] (Ac-KWQC[AEF][2Nal][αMeL]EA[dL]-NH2; linker 1-4-8 via X3); < 10 µg/mL

Now turn to the next compound.
Problem: Please report the recorded solubility at 2 h for CC(=O)N[C@H]1CCCCNC(=O)[C@@H]2CSSC[C@H](NC(=O)[C@H](CCC(N)=O)NC(=O)[C@H](Cc3c[nH]c4ccccc34)NC1=O)C(=O)N[C@@H](Cc1ccc(OCCN)cc1)C(=O)N[C@@H](Cc1ccc3ccccc3c1)C(=O)N[C@@](C)(CC(C)C)C(=O)N[C@H](C(=O)N[C@@H](CC(N)=O)C(=O)N[C@@H](CC(N)=O)C(N)=O)CCC(=O)N(C)CCCCC(=O)N2 [compound 14] (Ac-KWQC[AEF][2Nal][αMeL]ENN-NH2; linker 1-4-8 via X3) .
Result: 20 µg/mL

* * *

tested on: Pancreatin; test: Protease stability in simulated intestinal fluid (Pancreatin-SIF, FaSSIF); assay type: in vitro ADME; conditions: 60 min, 1 μM peptide, 37° C., read-out: FaSSIF 60 (min), remaining percent of peptide
Positions of bridges follow the written chain, without caps; N, C: chain ends. Non-standard residues stand in square brackets, D forms with d. Residues, ends and D or L forms follow the SMILES beside them. *: point of attachment. 2Nal = N[C@@H](Cc1ccc2ccccc2c1)C(=O)O; αMeL = CC(C)C[C@](C)(N)C(=O)O; Me2NCH2CH2 = CN(C)CC*; Ava = NCCCCC(=O)O
Listed here are molecules together with their documented remaining at 1 h, 1 µM.
Number in %, nothing else.

C[C@@H](O)[C@@H]1NC(=O)[C@H](CC(N)=O)NC(=O)[C@@H]2CSSC[C@H](NC(=O)[C@H](CCC(N)=O)NC(=O)[C@H](Cc3c[nH]c4ccccc34)NC1=O)C(=O)N[C@@H](Cc1ccc(OCCN(C)C)cc1)C(=O)N[C@H](Cc1ccc3ccccc3c1)C(=O)NC(C)(C)C(=O)N[C@H](C(=O)N[C@@H](CC(N)=O)C(=O)N[C@@H](CC(N)=O)C(N)=O)CCC(=O)NCCCCC(=O)N2 [compound 8]; 97

Now turn to the next molecule.
Problem: Please report the recorded remaining at 1 h, 1 µM for CC(C)C[C@@H](NC(=O)[C@H](CC(N)=O)NC(=O)[C@@H]1CCC(=O)NCCCCC(=O)N[C@H]2CSSC[C@H](NC(=O)[C@H](CCC(N)=O)NC(=O)[C@H](Cc3c[nH]c4ccccc34)NC(=O)[C@H]([C@@H](C)O)NC(=O)[C@H](CC(N)=O)NC2=O)C(=O)N[C@@H](Cc2ccc(OCCN(C)C)cc2)C(=O)N[C@@H](Cc2ccc3ccccc3c2)C(=O)N[C@@](C)(CC(C)C)C(=O)N1)C(N)=O [compound 10] ([Ava]CNTWQCY(Me2NCH2CH2)[2Nal][αMeL]EN[dL]-NH2; disulfide 2-7; lactam N-11) .
Result: 84

* * *

Listed here are compounds together with their documented solubility at 2 h.
assay: Solubility testing of peptides at different pH; format: physicochemical; conditions: 50 mM phosphate buffer pH 7.4; target concentration 1 mg/ml; 2 hours agitation; read-out: Solubility Buffer pH 7.4
Starred links: 1 amine or outer side, 2 acyl side, 3 side chain; linkers in the order of their positions; H or OH if unused. Positions of bridges follow the written chain, without caps; N, C: chain ends. Non-standard residues stand in square brackets, D forms with d. Residues, ends and D or L forms follow the SMILES beside them. *: point of attachment. Trp(7-Me) = Cc1cccc2c(C[C@H](N)C(=O)O)c[nH]c12; X1 = O=C(CCCCN[*:3])N[C@@H](CS[*:2])C(=O)[*:1]; 2Nal = N[C@@H](Cc1ccc2ccccc2c1)C(=O)O; 3Pal = N[C@@H](Cc1cccnc1)C(=O)O; αMeL = CC(C)C[C@](C)(N)C(=O)O; Thp = NC1(C(=O)O)CCOCC1; Me2NCH2CH2 = CN(C)CC*; Ava = NCCCCC(=O)O

For orientation, consider the following solved cases.
CC(=O)N[C@H]1CCCCNC(=O)[C@@H]2CSSC[C@H](NC(=O)[C@H](CCC(N)=O)NC(=O)[C@H](Cc3c[nH]c4ccccc34)NC1=O)C(=O)N[C@@H](Cc1ccc(OCCN(C)C)cc1)C(=O)N[C@@H](Cc1ccc3ccccc3c1)C(=O)NC1(CCOCC1)C(=O)N[C@H](C(=O)N[C@@H](C)C(=O)N[C@H](CC(C)C)C(N)=O)CCC(=O)NCCCCC(=O)N2 [compound 33] (Ac-KWQCY(Me2NCH2CH2)[2Nal][Thp]EA[dL]-NH2; linker 1-4-8 via X1); 0.64 mg/mL
CC(C)C[C@@H](NC(=O)[C@H](CC(N)=O)NC(=O)[C@@H]1CCC(=O)NCCCCC(=O)N[C@H]2CSSC[C@H](NC(=O)[C@H](CCC(N)=O)NC(=O)[C@H](Cc3c[nH]c4ccccc34)NC(=O)[C@H]([C@@H](C)O)NC(=O)[C@H](CC(N)=O)NC2=O)C(=O)N[C@@H](Cc2ccc(OCCN(C)C)cc2)C(=O)N[C@@H](Cc2ccc3ccccc3c2)C(=O)N[C@@](C)(CC(C)C)C(=O)N1)C(N)=O [compound 10] ([Ava]CNTWQCY(Me2NCH2CH2)[2Nal][αMeL]EN[dL]-NH2; disulfide 2-7; lactam N-11); 0.01 mg/mL
CC(=O)NCCCC[C@@H]1NC(=O)[C@H](Cc2c[nH]c3c(C)cccc23)NC(=O)[C@H]([C@@H](C)O)NC(=O)[C@H](CC(N)=O)NC(=O)[C@@H]2CSSC[C@H](NC1=O)C(=O)N[C@@H](Cc1ccc(OCCN(C)C)cc1)C(=O)N[C@@H](Cc1ccc3ccccc3c1)C(=O)NC1(CCOCC1)C(=O)N[C@H](C(=O)N[C@@H](CC(N)=O)C(=O)N[C@@H](Cc1cccnc1)C(N)=O)CCC(=O)NCCCCC(=O)N2 [compound 51] ([Ava]CNT[Trp(7-Me)]K(Ac)CY(Me2NCH2CH2)[2Nal][Thp]EN[3Pal]-NH2; disulfide 2-7; lactam N-11); 0.43 mg/mL

Problem: Please report the recorded solubility at 2 h for CC(C)C[C@]1(C)NC(=O)[C@H](Cc2ccc3ccccc3c2)NC(=O)[C@H](Cc2ccc(OCCN(C)C)cc2)NC(=O)[C@@H]2CSSC[C@H](NC(=O)CCCCNC(=O)CC[C@@H](C(=O)N[C@@H](CC(N)=O)C(=O)N[C@@H](CC(N)=O)C(N)=O)NC1=O)C(=O)N[C@@H](CC(N)=O)C(=O)N[C@@H]([C@@H](C)O)C(=O)N[C@@H](Cc1c[nH]c3ccccc13)C(=O)N[C@@H](CCC(N)=O)C(=O)N2 [compound 27] ([Ava]CNTWQCY(Me2NCH2CH2)[2Nal][αMeL]ENN-NH2; disulfide 2-7; lactam N-11) .
Result: 0.81 mg/mL
